- Assay system: T1, human GPC3-his tag protein (human, UniProt P51654 25-559, limits assumed)
- T1 construct: recombinant soluble antigen used as analyte in all Biacore runs; also called recombinant GPC3 protein; rhGPC3-His; not shown: His tag
- Experiment description: SPR Biacore 8K, mAb captured, one or two doses GPC3-his
Quantity kind: Kd (nM)

- 52H5D3B8-1# chimeric mAb (antibody, V domains shown, CDR3 mutant of the 52H5D3B8 chimeric mAb (human IgG1)) VH: QVQLQQSGAELVRPGASVKLSCKALGYTFTDYEMHWVKQTPVHGLEWIGAIHPGSGGTAYNQKFKGKATLTADKFSSTGYMELSSLTSEDSAVYYCTRYYSYAYWGQGTLVTVSA VL: DVVMTQTPLSLPVSLGDQASISCRSSQSLVHSNGNTYLQWYLQKPGQSPKLLIYKVSNRFSGVPDRFSGSGSGTDFILKISRVEAEDLGVYFCSQSIHVPYTFGGGTKLEIK: 0.74
